FYI, the data here is from ChEMBL document CHEMBL4020839.

- SYSTEM UNDER TEST: Histone deacetylase 2 (Homo sapiens)
- Sequence (Q92769 whole entry): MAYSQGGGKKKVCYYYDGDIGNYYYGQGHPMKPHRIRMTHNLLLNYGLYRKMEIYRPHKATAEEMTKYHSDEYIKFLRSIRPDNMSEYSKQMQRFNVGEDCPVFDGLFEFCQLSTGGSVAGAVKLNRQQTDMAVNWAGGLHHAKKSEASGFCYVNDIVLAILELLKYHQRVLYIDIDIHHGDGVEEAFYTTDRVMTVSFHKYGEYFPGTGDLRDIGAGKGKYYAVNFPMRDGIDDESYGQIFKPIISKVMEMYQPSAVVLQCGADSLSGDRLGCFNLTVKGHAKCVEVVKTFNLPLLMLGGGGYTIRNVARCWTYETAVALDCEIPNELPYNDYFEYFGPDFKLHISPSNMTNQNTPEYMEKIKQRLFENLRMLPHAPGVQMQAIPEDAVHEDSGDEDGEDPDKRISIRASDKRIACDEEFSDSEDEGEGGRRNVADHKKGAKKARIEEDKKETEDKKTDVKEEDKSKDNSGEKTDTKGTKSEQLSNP
- EXPERIMENT: Inhibition of full length recombinant human C-terminal FLAG/His-tagged HDAC2 expressed in baculovirus expression system using Boc-Lys(acetyl)-AMC as substrate preincubated for 90 mins followed by substrate addition measured after 2 hrs by fluorescence assay
VALUE TYPE: IC50

>>> endpoint_value("CCCNNC(=O)c1ccc(CNC(=O)[C@H](Cc2c[nH]c3ccccc23)NC(=O)c2ccc(OC)cc2)cc1")
"194 nM"
>>> endpoint_value("COc1ccc(C(=O)N[C@@H](Cc2c[nH]c3ccccc23)C(=O)NCc2ccc(C(=O)Nc3ccccc3N)cc2)cc1")
"121 nM"

* * *

- SYSTEM UNDER TEST: Histone deacetylase 3/Nuclear receptor corepressor 2 (HDAC3/NCoR2) (Homo sapiens)
- Sequence (O15379 whole entry): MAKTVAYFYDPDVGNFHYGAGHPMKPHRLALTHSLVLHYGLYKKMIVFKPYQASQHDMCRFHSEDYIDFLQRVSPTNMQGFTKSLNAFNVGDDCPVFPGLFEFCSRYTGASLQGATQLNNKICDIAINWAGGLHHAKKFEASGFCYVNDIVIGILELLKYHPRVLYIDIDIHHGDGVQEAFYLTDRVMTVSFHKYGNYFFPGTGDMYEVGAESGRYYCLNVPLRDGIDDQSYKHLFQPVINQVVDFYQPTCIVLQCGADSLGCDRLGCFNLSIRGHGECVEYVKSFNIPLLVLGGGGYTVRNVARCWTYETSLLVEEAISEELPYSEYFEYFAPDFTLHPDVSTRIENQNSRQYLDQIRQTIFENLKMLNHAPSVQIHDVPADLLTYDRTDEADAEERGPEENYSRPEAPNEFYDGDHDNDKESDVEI
- Sequence (Q9Y618 whole entry, further chain): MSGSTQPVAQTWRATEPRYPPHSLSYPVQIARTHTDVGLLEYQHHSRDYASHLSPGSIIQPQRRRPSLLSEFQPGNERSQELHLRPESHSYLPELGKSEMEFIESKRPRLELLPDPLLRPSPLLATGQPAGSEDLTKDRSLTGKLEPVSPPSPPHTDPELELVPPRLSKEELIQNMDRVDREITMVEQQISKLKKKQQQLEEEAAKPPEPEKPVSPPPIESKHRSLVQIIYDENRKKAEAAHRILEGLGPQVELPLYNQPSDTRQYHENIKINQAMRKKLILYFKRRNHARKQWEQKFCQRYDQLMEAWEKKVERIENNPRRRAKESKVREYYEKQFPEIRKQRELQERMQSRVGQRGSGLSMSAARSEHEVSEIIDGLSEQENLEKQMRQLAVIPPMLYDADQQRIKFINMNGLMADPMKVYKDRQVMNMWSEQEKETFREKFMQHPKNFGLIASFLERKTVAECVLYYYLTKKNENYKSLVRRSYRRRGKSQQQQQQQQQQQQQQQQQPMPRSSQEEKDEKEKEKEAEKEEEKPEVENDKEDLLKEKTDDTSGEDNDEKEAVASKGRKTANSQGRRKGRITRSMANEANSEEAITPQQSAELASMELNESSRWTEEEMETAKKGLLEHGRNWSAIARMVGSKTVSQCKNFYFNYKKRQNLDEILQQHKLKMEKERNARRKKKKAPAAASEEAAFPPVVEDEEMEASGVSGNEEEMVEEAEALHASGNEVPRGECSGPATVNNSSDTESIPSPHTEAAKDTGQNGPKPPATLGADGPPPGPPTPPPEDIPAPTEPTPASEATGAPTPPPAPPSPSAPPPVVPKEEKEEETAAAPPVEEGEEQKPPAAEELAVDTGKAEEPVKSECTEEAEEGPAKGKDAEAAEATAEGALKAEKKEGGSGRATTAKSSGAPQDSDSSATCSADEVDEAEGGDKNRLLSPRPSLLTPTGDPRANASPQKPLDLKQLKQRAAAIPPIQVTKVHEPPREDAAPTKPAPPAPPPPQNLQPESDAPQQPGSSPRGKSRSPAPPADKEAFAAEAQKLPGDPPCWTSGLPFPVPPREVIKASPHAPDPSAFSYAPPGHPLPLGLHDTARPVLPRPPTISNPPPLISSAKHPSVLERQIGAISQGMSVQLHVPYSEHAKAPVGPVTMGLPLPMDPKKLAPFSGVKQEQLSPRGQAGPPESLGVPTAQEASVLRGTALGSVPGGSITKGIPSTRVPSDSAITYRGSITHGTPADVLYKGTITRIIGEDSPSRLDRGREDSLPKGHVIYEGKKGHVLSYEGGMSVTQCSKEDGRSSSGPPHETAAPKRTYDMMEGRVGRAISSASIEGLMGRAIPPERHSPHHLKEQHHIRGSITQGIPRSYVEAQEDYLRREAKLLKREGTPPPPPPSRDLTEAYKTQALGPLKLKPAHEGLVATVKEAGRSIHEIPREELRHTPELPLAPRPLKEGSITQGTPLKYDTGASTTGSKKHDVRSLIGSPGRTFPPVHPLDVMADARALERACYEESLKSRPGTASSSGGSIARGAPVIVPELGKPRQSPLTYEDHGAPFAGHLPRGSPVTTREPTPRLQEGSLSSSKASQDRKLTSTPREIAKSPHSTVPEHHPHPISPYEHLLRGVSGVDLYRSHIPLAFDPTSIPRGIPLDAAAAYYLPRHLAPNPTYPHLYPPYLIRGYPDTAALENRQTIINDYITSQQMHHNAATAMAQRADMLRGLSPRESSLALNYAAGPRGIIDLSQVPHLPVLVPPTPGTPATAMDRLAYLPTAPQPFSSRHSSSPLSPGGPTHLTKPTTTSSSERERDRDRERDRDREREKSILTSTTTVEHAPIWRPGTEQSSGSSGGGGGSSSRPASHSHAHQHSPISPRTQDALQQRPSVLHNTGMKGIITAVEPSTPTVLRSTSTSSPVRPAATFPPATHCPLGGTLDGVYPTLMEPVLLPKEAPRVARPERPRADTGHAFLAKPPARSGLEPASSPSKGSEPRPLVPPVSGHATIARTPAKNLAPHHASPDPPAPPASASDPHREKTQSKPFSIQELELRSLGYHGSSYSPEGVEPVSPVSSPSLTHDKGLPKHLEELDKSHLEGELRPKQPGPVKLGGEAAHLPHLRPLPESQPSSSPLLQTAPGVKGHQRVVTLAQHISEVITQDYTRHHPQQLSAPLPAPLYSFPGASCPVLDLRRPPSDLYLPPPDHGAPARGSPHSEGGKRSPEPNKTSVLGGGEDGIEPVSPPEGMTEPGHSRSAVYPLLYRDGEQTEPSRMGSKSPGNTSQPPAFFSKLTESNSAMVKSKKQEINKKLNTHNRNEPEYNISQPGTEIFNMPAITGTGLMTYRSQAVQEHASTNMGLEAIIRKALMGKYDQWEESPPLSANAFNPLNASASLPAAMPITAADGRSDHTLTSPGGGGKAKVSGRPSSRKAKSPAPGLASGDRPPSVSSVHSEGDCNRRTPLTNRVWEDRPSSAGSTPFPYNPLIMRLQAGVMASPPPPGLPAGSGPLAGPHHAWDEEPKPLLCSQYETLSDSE
- EXPERIMENT: Inhibition of full length recombinant human C-terminal His-tagged HDAC3/N-terminal GST-tagged NCOR2 co-expressed in baculovirus expression system using Boc-Lys(acetyl)-AMC as substrate preincubated for 1 hr followed by substrate addition measured after 2 hrs by fluorescence assay
pIC50: −log10 of the molar value.
# label = TRUE if pIC50 >= 8 else FALSE

>>> qualitative_label("COc1ccc(C(=O)N[C@@H](Cc2c[nH]c3ccccc23)C(=O)NCc2ccc(C(=O)NNc3ccccc3)cc2)cc1")
"FALSE"
>>> qualitative_label("CCCNNC(=O)CCCCCCNC(=O)[C@H](Cc1c[nH]c2ccccc12)NC(=O)c1ccc(OC)cc1")
"TRUE"
>>> qualitative_label("CCCNNC(=O)c1ccc(NC(=O)[C@H](Cc2c[nH]c3ccccc23)NC(=O)c2ccc(OC)cc2)cc1")
"TRUE"
>>> qualitative_label("COc1ccc(C(=O)N[C@@H](Cc2c[nH]c3ccccc23)C(=O)NCc2ccc(C(=O)NNC3CCCC3)cc2)cc1")
"FALSE"
>>> qualitative_label("CCCNNC(=O)/C=C/c1ccc(OC[C@H](Cc2c[nH]c3ccccc23)NC(=O)c2ccc(OC)cc2)cc1")
"TRUE"
>>> qualitative_label("CCNNC(=O)c1ccc(CNC(=O)[C@H](Cc2c[nH]c3ccccc23)NC(=O)c2ccc(OC)cc2)cc1")
"FALSE"

* * *

- SYSTEM UNDER TEST: Histone deacetylase 1 (Homo sapiens, UniProt Q13547)
- Sequence (Q13547 whole entry): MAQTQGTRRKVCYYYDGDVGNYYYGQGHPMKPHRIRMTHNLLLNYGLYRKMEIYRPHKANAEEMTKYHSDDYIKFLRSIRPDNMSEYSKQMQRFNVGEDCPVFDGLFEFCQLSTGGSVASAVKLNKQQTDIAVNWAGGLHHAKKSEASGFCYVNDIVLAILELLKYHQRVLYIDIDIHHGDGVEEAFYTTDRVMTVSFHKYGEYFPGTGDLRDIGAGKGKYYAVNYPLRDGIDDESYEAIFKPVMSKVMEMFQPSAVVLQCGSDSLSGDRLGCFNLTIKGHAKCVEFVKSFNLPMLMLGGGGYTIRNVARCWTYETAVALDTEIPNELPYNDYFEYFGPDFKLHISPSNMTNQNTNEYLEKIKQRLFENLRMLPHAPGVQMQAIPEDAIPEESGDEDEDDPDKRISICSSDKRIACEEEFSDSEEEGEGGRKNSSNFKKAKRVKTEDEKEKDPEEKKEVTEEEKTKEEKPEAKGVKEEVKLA
- EXPERIMENT: Inhibition of full length recombinant human C-terminal FLAG/His-tagged HDAC1 expressed in baculovirus expression system using Boc-Lys(acetyl)-AMC as substrate preincubated for 1 hr followed by substrate addition measured after 2 hrs by fluorescence assay
pIC50: −log10 of the molar value.
VALUE TYPE: pIC50

>>> endpoint_value("CCNNC(=O)c1ccc(CNC(=O)[C@H](Cc2c[nH]c3ccccc23)NC(=O)c2ccc(OC)cc2)cc1")
7.02
>>> endpoint_value("COc1ccc(C(=O)N[C@@H](Cc2c[nH]c3ccccc23)C(=O)NCc2ccc(C(=O)NNC3CCCC3)cc2)cc1")
"< 5.30"
>>> endpoint_value("COc1ccc(C(=O)N[C@@H](Cc2c[nH]c3ccccc23)C(=O)NCc2ccc(C(=O)NNc3ccccc3)cc2)cc1")
"< 5.30"

* * *

- SYSTEM UNDER TEST: Histone deacetylase 1 (Homo sapiens, UniProt Q13547)
- EXPERIMENT: Inhibition of full length recombinant human C-terminal FLAG/His-tagged HDAC1 expressed in baculovirus expression system using Boc-Lys(acetyl)-AMC as substrate preincubated for 30 mins followed by substrate addition measured after 2 hrs by fluorescence assay
pIC50: −log10 of the molar value.
VALUE TYPE: pIC50

>>> endpoint_value("COc1ccc(C(=O)N[C@@H](Cc2c[nH]c3ccccc23)C(=O)NCc2ccc(C(=O)Nc3ccccc3N)cc2)cc1")
7.19
